# System: conscious dogs (beagles)
# experiment notes: Effect on heart rate and arterial blood pressure of conscious dogs
# Type: in vivo, dog
# assay conditions: methyl cellulose 1% + 2% DMSO, 24 mg/kg oral, 180 min; preliminary value 70

# structure string, DBP (mmHg)
records = [
    ("c1ccn2c(=Nc3ccncc3)snc2c1", 65),
]

----------
# System: conscious dogs (beagles)
# experiment notes: Effect on heart rate and arterial blood pressure of conscious dogs
# Assay type: in vivo, dog
# assay conditions: edible oil + 2% DMSO, 24 mg/kg oral, 300 min; preliminary value 111

# compound, MAP, mmHg
records = [
    ("c1ccn2c(=Nc3ccncc3)snc2c1 [Example 2b]", 110),
]

----------
# Tested on: conscious dogs (beagles)
# experiment notes: Effect on heart rate and arterial blood pressure of conscious dogs
# Type: in vivo, dog
# assay conditions: edible oil + 2% DMSO, 24 mg/kg oral, 120 min; preliminary value 79

# compound, HR [beats/min]
data = [
    ("c1ccn2c(=Nc3ccncc3)snc2c1 [Example 2b]", 82),
]

----------
# Tested on: conscious dogs (beagles)
# experiment notes: Effect on heart rate and arterial blood pressure of conscious dogs
# Assay type: in vivo, dog
# assay conditions: edible oil + 2% DMSO, 24 mg/kg oral, 210 min; preliminary value 111

# molecule, unit descriptor, MAP
data = [
    ("c1ccn2c(=Nc3ccncc3)snc2c1 [Example 2b]", "mmHg", 114),
]

----------
# Test system: conscious dogs (beagles)
# experiment notes: Effect on heart rate and arterial blood pressure of conscious dogs
# Assay type: in vivo, dog
# assay conditions: edible oil + 2% DMSO, 24 mg/kg oral, 90 min; preliminary value 66

# compound, unit descriptor, DBP
records = [
    ("c1ccn2c(=Nc3ccncc3)snc2c1 [Example 2b]", "mmHg", 58),
]

----------
# Test system: conscious dogs (beagles)
# experiment notes: Effect on heart rate and arterial blood pressure of conscious dogs
# Type: in vivo, dog
# assay conditions: methyl cellulose 1% + 2% DMSO, 24 mg/kg oral, 90 min; preliminary value 70

# molecule, DBP (mmHg)
records = [
    ("c1ccn2c(=Nc3ccncc3)snc2c1 [Example 2b]", 63),
]
